target: HLA-DR DRB4*0101 (DR53) (Homo sapiens, UniProt P01903+P13762, G164S); experiment: biochemical; format: binding; settings: DRB4 *0101
OBSERVED PROPERTY: IC50 (µM)
Give bare numbers, in µM.

# COMPOUND STRING, OBSERVED PROPERTY, NUMERIC VALUE
measured = [
    ("CC[C@H](C)[C@H](N)C(=O)N[C@@H](CCCNC(=N)N)C(=O)N[C@H](C(=O)N[C@@H](CC(C)C)C(=O)N[C@@H](CCC(=O)O)C(=O)N[C@@H](CC(=O)O)C(=O)N[C@@H](CC(C)C)C(=O)N[C@@H](CC(C)C)C(=O)N[C@@H](CCSC)C(=O)NCC(=O)N[C@H](C(=O)N[C@@H](CC(C)C)C(=O)NCC(=O)N[C@H](C(=O)N[C@H](C(=O)O)C(C)C)[C@@H](C)CC)[C@@H](C)O)[C@@H](C)O", "IC50", 0.023),
]

Query: IC50 for `CC[C@H](C)[C@H](NC(=O)[C@H](CS)NC(=O)[C@H](Cc1c[nH]cn1)NC(=O)[C@H](C)NC(=O)[C@H](C)NC(=O)[C@@H](NC(=O)[C@H](CC(C)C)NC(=O)[C@@H](NC(=O)[C@H](Cc1c[nH]c2ccccc12)NC(=O)[C@@H](N)CCC(N)=O)C(C)C)[C@@H](C)O)C(=O)N[C@@H](CCCNC(=N)N)C(=O)N[C@@H](CC(N)=O)C(=O)N[C@@H](CCCCN)C(=O)N[C@@H](CO)C(=O)N[C@H](C(=O)O)C(C)C` ?
Result: 3.8
